The following compounds are shown together with reported pIC50 values.
target: Human autotaxin enzyme (Homo sapiens, UniProt Q13822); construct: purchased R&D System; assay: Evaluation of autotaxin inhibitor, Method C (Test Example 3): 18:0 Lyso PC, choline assay, Resorufin fluorescence; type: biochemical; conditions: Assay Method C (Test Example 3), human autotaxin, 18:0 Lyso PC substrate; read-out: Inhibitory Activity (autotaxin enzyme inhibitory activity, IC50 class)
pIC50: −log10 of the molar value.

CCCCCn1c(N2CCC[C@H]2C(=O)N2CCC(C(N)=O)C2)cc(=O)n2cc(-c3ccc(Cl)cc3)nc12 (stereo partly shown) = 6.00 to 7.00
CCCCCn1c(-c2ccc(CO)cc2)cc(=O)n2cc(-c3ccc(Cl)cc3)nc12 = 7.00 to 8.00

### Prompt Bench note: what pIC50 did CCCCCn1c(N2CCCC2c2ccccc2)cc(=O)n2cc(-c3ccc(Cl)cc3)nc12 (stereo not shown) show?
### Response 7.00 to 8.00

### Prompt # iterate: CCCCCn1c(N2CC3CNCC3C2)cc(=O)n2cc(-c3ccc(Cl)cc3)nc12 (stereo not shown)
### Response 6.00 to 7.00
